# target_desc: GST-SP1 (UniProt P08047)
# Sequence (P08047 whole entry): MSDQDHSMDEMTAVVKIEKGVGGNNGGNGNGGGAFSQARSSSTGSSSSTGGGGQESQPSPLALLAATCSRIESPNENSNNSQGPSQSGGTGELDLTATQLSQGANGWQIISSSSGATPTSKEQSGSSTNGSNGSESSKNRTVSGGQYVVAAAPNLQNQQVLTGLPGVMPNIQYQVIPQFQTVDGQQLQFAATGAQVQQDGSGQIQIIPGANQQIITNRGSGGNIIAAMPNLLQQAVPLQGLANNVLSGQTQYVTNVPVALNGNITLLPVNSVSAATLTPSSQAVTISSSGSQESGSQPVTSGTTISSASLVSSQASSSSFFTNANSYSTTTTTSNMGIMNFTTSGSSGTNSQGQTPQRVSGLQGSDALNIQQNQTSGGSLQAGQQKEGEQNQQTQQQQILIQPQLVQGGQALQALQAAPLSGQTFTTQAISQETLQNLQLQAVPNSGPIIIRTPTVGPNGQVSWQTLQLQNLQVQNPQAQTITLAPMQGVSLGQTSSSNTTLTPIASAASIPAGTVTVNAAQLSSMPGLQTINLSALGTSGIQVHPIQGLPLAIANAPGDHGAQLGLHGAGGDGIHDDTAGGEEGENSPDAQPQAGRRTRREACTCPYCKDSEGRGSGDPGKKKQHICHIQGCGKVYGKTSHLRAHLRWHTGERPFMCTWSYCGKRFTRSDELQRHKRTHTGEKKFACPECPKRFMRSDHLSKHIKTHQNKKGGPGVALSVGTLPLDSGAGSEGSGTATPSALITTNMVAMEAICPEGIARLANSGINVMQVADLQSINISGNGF
# protocol_description: SPR
# condition_summary: SPR VEGF165: DNA folded in 10 mM Tris-HCl, 100 mM KCl, pH 7.4, 25 °C; ELONA: DNA folded in TK (100 mM KCl) or 100 mM LiCl buffer, binding in TBS (10 mM …)
measure: pKd
Quick note: pKd means taking -log10 of the concentration in moles per liter.

Observe how each entry below is paired with its result.
- residue_string: "GGCGAGGAGGGGCGTGGCCGGC [c-KIT G4 unmethylated]"
  pKd: 7.80
- residue_string: "GGGGCGGGCCGGGGGCGGGG [VEGF G4 unmethylated]"
  pKd: 7.85
- residue_string: "CGGGGCGGGGCGGGGGCGGGGGCG [HRAS2 G4 unmethylated]"
  pKd: 8.00
- residue_string: "TCGGGTTGCGGGCGCAGGGCACGGGCG [HRAS1 G4 unmethylated]"
  pKd: 8.00

Let us examine a further case.
Recorded pKd for CGGGCGCGGGAGGAAGGGGGCGGGAGC [BCL-2 G4 unmethylated] with GST-SP1 (UniProt P08047), please? 7.92

Measured values drawn from paper PMC6017926 for this set.
